meta.source: patent US20240246913A1

# Test protocol: Metabolic stability in mouse hepatocytes
# Format: in vitro ADME
# Test conditions: cryopreserved mouse hepatocytes, 1 μM compound, 37° C., up to 90 min, read-out: Metabolic stability in hepatocytes, in vitro t1/2, Mouse
# half-life at 1 μM per entry

Before answering, review these 3 worked examples.
1) C[C@@H](c1cccc2c(-c3ccc(CS(C)(=O)=O)c(F)c3)c(C(=O)O)[nH]c12)n1cc(CCCN)oc1=O ... 2.5 to 6.67 h
2) CC(c1cccc2c(-c3ccc(CS(C)(=O)=O)c(F)c3)c(C(=O)O)[nH]c12)N(C)C(=O)c1ccc(CN)cc1 (centres unmarked) ... < 2.5 h
3) CC(Oc1ccc(CN)cc1)c1cccc2c(-c3ccc(CS(C)(=O)=O)c(F)c3)c(C(=O)O)[nH]c12 (centres unmarked) ... 2.5 to 6.67 h

// next entry
Record summary for CC(OCC1CCNCC1)c1cccc2c(-c3ccc(CS(C)(=O)=O)c(F)c3)c(C(=O)O)[nH]c12 (centres unmarked) : reported half-life at 1 μM = > 6.67 h

----------
# Target or test system: VIM-1 (Pseudomonas aeruginosa, UniProt A0A0F7KYQ8)
# Test protocol: MBL inhibition, FC-5 fluorescence assay, VIM-1
# Type: biochemical
# Test conditions: FC-5 cephalosporin substrate, ranges of obtained pIC50, read-out: pIC50 VIM-1 (converted)
Measure name: IC50

1. C[C@@H](c1cccc2c(-c3ccc4c(c3)CC(=O)N4)c(C(=O)O)[nH]c12)N1C[C@]2(C[C@@H](CN)C2)OC1=O [IC-41] ... 1 to 10 nM
2. CC(OC(=O)Nc1ccc(CN)cc1)c1cccc2c(-c3ccc(CS(C)(=O)=O)c(F)c3)c(C(=O)O)[nH]c12 (stereo not shown) [IC-96] ... > 10 nM
3. CC(c1cccc2c(-c3ccc(CS(C)(=O)=O)c(F)c3)c(C(=O)O)[nH]c12)n1cc(CNC(=O)CN)oc1=O (stereo not shown) [IC-80] ... 1 to 10 nM

Quick note, IC50 for CC(c1cccc2c(-c3ccc(CS(C)(=O)=O)c(F)c3)c(C(=O)O)[nH]c12)N1CC(CCCN)OC1=O (single isomer, unassigned) [IC-83] landed at 1 to 10 nM

C[C@@H](c1cccc2c(-c3ccc(CS(C)(=O)=O)c(F)c3)c(C(=O)O)[nH]c12)n1cc(CCC2(N)CC2)oc1=O [IC-69] has a reported IC50 of 0.1 to 1 nM

Lab book: IC50 of CS(=O)(=O)Cc1ccc(-c2c(C(=O)O)[nH]c3c(COCc4ccc(CN)cc4)cccc23)cc1F [IC-85] noted as > 10 nM

Reported IC50 ( C[C@@H](c1cccc2c(-c3c(F)cc(NS(C)(=O)=O)cc3F)c(C(=O)O)[nH]c12)N1C[C@]2(C[C@@H](CN)C2)OC1=O [IC-21] ) = > 10 nM

Reported IC50 ( CC(c1nn[nH]n1)c1cccc2c(-c3ccc(CS(C)(=O)=O)c(F)c3)c(C(=O)O)[nH]c12 (stereo not shown) [IC-9] ) = > 10 nM

Record C[C@@H](c1cccc2c(-c3ccc(NS(C)(=O)=O)c(C#N)c3)c(C(=O)O)[nH]c12)n1cc(CN2CC(N)C2)oc1=O [IC-55] . Reported IC50: > 10 nM

Measured IC50, CC(c1cccc2c(-c3ccc(CS(C)(=O)=O)c(F)c3)c(C(=O)O)[nH]c12)N1CC(CCCN)OC1=O (single isomer, unassigned) [IC-84] : 0.1 to 1 nM

Reported IC50 ( CC(c1noc(CCCN)n1)c1cccc2c(-c3ccc(CS(C)(=O)=O)c(F)c3)c(C(=O)O)[nH]c12 (stereo not shown) [IC-62] ) = 0.1 to 1 nM

Reported IC50 for C[C@@H](c1cccc2c(-c3ccc(CS(C)(=O)=O)c(F)c3)c(C(=O)O)[nH]c12)N1CC2(CCC(N)CC2)OC1=O (stereo partly shown) [IC-71] was > 10 nM

Query C[C@@H](c1cccc2c(-c3cncc(O)c3)c(C(=O)O)[nH]c12)N1C[C@]2(C[C@@H](CN)C2)OC1=O [IC-23] yields IC50 of 1 to 10 nM

IC50 for CC(CC(=O)NCCc1c[nH]cn1)c1cccc2c(-c3ccc(CS(C)(=O)=O)c(F)c3)c(C(=O)O)[nH]c12 (racemic) [IC-104] is > 10 nM
